Details: Liquid; pulse-heating method
Measured property: Critical temperature (K)

Compound string | Output unit | Critical temperature
OCCCc1ccccc1 | K | 732
OCCc1ccccc1 | K | 720
Oc1ccccc1 | K | 695
OCCCCc1ccccc1 | K | 746

* * *

Settings: Liquid; pulse heating
Measured property: Critical pressure (kPa)

Compound | Output unit | Critical pressure
OCCCc1ccccc1 [3-phenyl-1-propanol] | kPa | 3460
OCCc1ccccc1 [2-phenylethanol] | kPa | 3850

I: OCCCCc1ccccc1 [4-phenyl-1-butanol]
II: Oc1ccccc1 [phenol]
Qu. Given the listed items, does I or II have the lesser reported Critical pressure? Please identify the chosen entry by its label.
Ans. I
(I: 3070 kPa, II: 5670 kPa)
